- assayed system: T1, NHERF3_4, Q5T2W1
- T1 sequence (Q5T2W1 373-468, limits assumed, looked up): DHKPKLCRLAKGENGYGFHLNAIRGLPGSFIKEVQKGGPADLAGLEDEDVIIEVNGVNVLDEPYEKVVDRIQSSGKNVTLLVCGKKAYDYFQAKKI
- run description: holdup assay
- Parameters: key: below the threshold = too weak to quantify, mostly under pKd 3.1 to 4
- assay conditions: plain residues with an end cap or a label only (N-terminal biotin on a linker: ttds)
measured attribute: pKd
Answers are plain numbers.

Worked examples follow.
* SSRTRRETQL [HPV16-E6, P03126] | 3.89
* IYVPEAQTRL [DLGAP4, Q9Y2H0] | 3.87
* QSARYRDTEL [TJP2, Q9UDY2] | 3.81
* IDNDTESTAL [ARHGAP17, Q68EM7] | 4.78

Next, consider the following binder.
Fill blank: measured pKd of the binder SVWLRKETRV [CYSLTR2, Q9NS75] is ____.
3.48
